Biological target: mouse TRPM3α2 (mTRPM3) ion channel (Mus musculus (Mouse), UniProt J9SQF3)
Sequence (J9SQF3 other isoform, or with tags, fused parts or gaps): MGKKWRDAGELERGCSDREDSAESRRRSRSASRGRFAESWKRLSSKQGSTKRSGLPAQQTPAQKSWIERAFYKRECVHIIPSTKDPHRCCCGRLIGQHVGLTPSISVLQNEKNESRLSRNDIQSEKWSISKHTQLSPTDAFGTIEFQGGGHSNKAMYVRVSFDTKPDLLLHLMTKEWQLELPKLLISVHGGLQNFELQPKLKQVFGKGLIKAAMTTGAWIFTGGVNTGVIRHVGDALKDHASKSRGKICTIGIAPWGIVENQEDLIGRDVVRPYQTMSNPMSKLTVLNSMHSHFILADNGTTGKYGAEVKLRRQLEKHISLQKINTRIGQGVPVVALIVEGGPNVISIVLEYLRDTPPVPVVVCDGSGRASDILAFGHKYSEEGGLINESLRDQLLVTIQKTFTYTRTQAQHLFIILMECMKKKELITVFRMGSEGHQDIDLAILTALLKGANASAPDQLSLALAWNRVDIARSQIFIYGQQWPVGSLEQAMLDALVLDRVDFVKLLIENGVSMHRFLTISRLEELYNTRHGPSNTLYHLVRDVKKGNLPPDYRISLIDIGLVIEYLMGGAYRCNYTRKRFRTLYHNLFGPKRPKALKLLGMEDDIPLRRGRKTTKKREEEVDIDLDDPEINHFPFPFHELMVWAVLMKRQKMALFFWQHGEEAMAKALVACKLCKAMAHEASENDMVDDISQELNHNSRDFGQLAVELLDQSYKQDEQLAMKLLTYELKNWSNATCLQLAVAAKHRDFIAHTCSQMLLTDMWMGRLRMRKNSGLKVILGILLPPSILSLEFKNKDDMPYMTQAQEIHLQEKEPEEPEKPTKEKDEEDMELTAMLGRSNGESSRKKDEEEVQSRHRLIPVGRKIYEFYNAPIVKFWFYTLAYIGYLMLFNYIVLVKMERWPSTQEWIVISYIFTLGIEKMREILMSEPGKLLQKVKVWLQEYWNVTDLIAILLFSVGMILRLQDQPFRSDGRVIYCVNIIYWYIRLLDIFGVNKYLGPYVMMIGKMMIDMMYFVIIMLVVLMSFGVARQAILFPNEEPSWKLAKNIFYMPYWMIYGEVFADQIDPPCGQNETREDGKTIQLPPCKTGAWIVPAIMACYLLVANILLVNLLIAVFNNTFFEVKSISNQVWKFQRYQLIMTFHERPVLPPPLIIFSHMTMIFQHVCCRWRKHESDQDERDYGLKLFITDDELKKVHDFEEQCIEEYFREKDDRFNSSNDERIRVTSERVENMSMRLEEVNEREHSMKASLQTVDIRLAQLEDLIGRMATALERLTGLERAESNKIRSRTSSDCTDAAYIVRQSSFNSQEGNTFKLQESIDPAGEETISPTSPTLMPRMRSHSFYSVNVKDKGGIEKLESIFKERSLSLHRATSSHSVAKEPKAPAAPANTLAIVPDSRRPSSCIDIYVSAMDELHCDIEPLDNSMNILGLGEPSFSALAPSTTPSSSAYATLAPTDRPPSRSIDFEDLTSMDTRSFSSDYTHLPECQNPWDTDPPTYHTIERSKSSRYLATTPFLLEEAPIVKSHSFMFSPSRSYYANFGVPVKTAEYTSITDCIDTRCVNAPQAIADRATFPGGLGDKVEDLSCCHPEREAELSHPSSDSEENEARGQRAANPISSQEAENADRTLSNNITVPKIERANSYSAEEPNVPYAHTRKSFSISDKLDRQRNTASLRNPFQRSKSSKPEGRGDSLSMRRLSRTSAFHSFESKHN
Assay: TRPM3 ion channel driven Ca2+ uptake, Fluo-4 AM assay, mTRPM3alpha2 overexpressing flip-in HEK293 cells stimulated with pregnenolone sulfate
Type: cell-based
Details: PS (50 μM) stimulated, cpds. 500-599
pIC50: −log10 of the molar value.
Overview of recorded pIC50 for various molecules

Example results:
- molecule: "Cc1cnc(COc2ccc3oc(C)c(C(=O)NC4CCNCC4(F)F)c3c2)s1 (single isomer, unassigned) [cpd 555-En 1]"
  assay_endpoint: "pIC50"
  experimental_result: "> 6.00"
- molecule: "Cc1ncc(COc2ccc3oc(C)c(C(=O)NC4CCNCC4(F)F)c3c2)s1 (single isomer, unassigned) [cpd 549-En 1]"
  assay_endpoint: "pIC50"
  experimental_result: "> 6.00"
- molecule: "Cc1ncsc1COc1ccc2oc(C)c(C(=O)NC(=O)C3(N(C)C)COC3)c2c1"
  assay_endpoint: "pIC50"
  experimental_result: "> 6.00"
- molecule: "Cc1oc2ccc(OCc3ncccc3F)cc2c1C(=O)NC1CCNCC1(F)F (single isomer, unassigned) [cpd 566-En 2]"
  assay_endpoint: "pIC50"
  experimental_result: "4.70 to 6.00"
- molecule: "Cc1oc2ccc(OCc3cn(C)nn3)cc2c1C(=O)NC1CCNCC1(F)F (single isomer, unassigned) [cpd 540-En 1]"
  assay_endpoint: "pIC50"
  experimental_result: "4.70 to 6.00"

Entry under test: Cc1oc2ccc(OCc3ccc(OCCO)cn3)cc2c1C(=O)NC1CCNCC1(F)F (single isomer, unassigned) . Its pIC50 was < 4.70

Entry under test: Cc1ncsc1COc1cc2c(C(=O)NC3CCNCC3(F)F)c(C)oc2cc1F (single isomer, unassigned) . Its pIC50 was > 6.00
